Target System: T1, UBXD1-PUB (150–264) N184D (UniProt Q9BZV1 150-264, N184D)
T1 construct: UBXD1 PUB domain construct, residues 150-264, point mutant; source: E. coli Rosetta2, purified (Ni-NTA, thrombin cleavage of the tag, SEC); not shown: His6, N-terminal, cleaved
T1 sequence (looked up): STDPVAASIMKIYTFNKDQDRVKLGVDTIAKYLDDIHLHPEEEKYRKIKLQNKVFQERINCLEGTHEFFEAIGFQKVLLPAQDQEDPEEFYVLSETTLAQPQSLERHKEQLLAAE
Assay Notes: fluorescence polarisation; fluorescence anisotropy; PUB constructs titrated to 100 nM 5,6-FAM labeled p97-C10 peptide; 50 mM NaKPi pH 6.5, 25 °C; triplicate; one-site quadratic fit
Measurement Parameters: both partners purified
No end group written: not given here.
Measured Attribute: pKd
Lab note: report pKd as minus log10 of the concentration in molar units, number only.

// field: pKd; key: TEDNDDDLYG (also: 5,6-FAM label, position not given here, source: synthetic peptide, bought: Caslo ApS (Denmark)) [5,6-FAM-labeled p97-C10 peptide] ; value = 4.10
